system: HCT-116; test: Growth inhibition of human HCT116 cells after 24 hrs by MTT assay; type: functional, cell-based; settings: HCT-116, 24 h
propertyMeasured: IC50 (µM)
Number in µM, nothing else.

Bench note: what IC50 did CN(C)CCN1C(=O)c2cccc3cc(N)cc(c23)C1=O [AMONAFIDE] show?
8.55

Repeat for the following compound: Cl.Cl.Cl.NCCCCNCCCCNCCCCN1C(=O)c2cccc3cccc1c23
6.9

---

For each of the compounds below, state its IC50.
test system: HepG2; assay: Growth inhibition of human HepG2 cells after 48 hrs by MTT assay; assay type: functional, cell-based; conditions: HepG2, 48 h

Please provide the recorded IC50 for CCCCN1C(=O)c2cccc3c(NC(=O)CNCCCCN)ccc1c23 , tested on HepG2.
> 50 µM

Repeat for the following compound: NCCCNCCCNCCCN1C(=O)c2cccc3cccc1c23
14.6 µM

Repeat for the following compound: CCCCN1C(=O)c2cccc3c(CNCCCNCCCN)ccc1c23
3.27 µM

Repeat for the following compound: NCCCNCCCCNCCCN1C(=O)c2cccc3cccc1c23
25.4 µM

Repeat for the following compound: NCCCCNCCCCN1C(=O)c2cccc3cccc1c23
> 50 µM

Repeat for the following compound: Cl.Cl.Cl.NCCCCNCCCCNCCCCN1C(=O)c2cccc3cccc1c23
5.28 µM

---

test system: HepG2; test: Growth inhibition of human HepG2 cells after 48 hrs by MTT assay; format: functional, cell-based; settings: HepG2, 48 h
For each of the compounds below, state its IC50.
Number in µM, nothing else.

Bench note: what IC50 did CN(C)CCN1C(=O)c2cccc3cc(N)cc(c23)C1=O [AMONAFIDE] show?
11.7

Repeat for the following compound: CCCCN1C(=O)c2cccc3c(NC(=O)CNCCCCNCCCCN)ccc1c23
21.9

Repeat for the following compound: CCCCN1C(=O)c2cccc3c(NC(=O)CNCCCCNCCCCNCCCCN)ccc1c23
16.1

Repeat for the following compound: CCCCN1C(=O)c2cccc3c(CNCCCCN)ccc1c23
10.1

---

test system: HepG2; assay: Growth inhibition of human HepG2 cells after 48 hrs by MTT assay; type: functional, cell-based; details: HepG2, 48 h
For each of the compounds below, state its IC50.

Bench note: what IC50 did NCCCNCCCN1C(=O)c2cccc3cccc1c23 show?
> 50 µM

Repeat for the following compound: CCCCN1C(=O)c2cccc3c(NC(=O)CNCCCNCCCN)ccc1c23
> 50 µM

Repeat for the following compound: CCCCN1C(=O)c2cccc3c(NC(=O)CNCCCNCCCNCCCN)ccc1c23
> 50 µM
